# test: Cmax in ICR mouse at 10 mg/kg, po by LC-MS/MS analysis
# Format: ADME, organism-based
# Design: dose 10 mg/kg, route oral
# protocol.conditions: in vivo
readout.label: Cmax (ng/mL)
Please respond with the number in ng/mL and leave the unit unwritten.

Dear colleague, I am looking for the recorded Cmax of the following compound: `CCCN(CCCCNC(=O)c1ccc(-c2ccccn2)cc1)C[C@@H]1C[C@H]1c1cccc(Cl)c1Cl.Cl`
118

Next entry: `CCCN(CCCCNC(=O)c1ccc2ccccc2c1)C[C@@H]1C[C@H]1c1cccc(Cl)c1Cl.Cl`
37.3

Try `CCCN(CCCCNC(=O)c1ccc(-c2ccccn2)cc1)C[C@@H]1C[C@H]1c1cc(F)ccc1OC.Cl` next.
43.2

Similarly, `CCCN(CCCCNC(=O)c1cc2ccccc2[nH]1)C[C@@H]1C[C@H]1c1cccc(Cl)c1Cl.Cl` ?
63.9

====

Consider the following compounds; for each one, report its pKi.
# system: D(1B) dopamine receptor (Homo sapiens, UniProt P21918)
# Sequence (P21918 whole entry): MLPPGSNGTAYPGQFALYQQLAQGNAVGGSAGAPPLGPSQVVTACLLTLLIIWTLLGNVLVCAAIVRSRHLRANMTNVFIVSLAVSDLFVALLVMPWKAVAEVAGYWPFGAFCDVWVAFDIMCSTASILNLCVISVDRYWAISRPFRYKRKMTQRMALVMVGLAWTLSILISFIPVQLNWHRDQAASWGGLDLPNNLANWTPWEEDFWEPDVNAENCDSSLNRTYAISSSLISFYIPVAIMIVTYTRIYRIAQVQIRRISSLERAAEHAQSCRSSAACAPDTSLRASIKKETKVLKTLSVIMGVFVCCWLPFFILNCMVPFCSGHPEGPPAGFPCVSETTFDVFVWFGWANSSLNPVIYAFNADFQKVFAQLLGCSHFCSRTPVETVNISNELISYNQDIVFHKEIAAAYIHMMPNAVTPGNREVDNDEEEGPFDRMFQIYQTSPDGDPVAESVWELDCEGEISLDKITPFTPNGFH
# test: Displacement of [3H]-SCH23390 from recombinant human D5 receptor transiently expressed in HEKT cell membranes measured after 90 mins by microbeta scintillation counting method
Field pKi (float): negative decimal logarithm of the concentration in molar.

Entry CCCN(CCCCNC(=O)c1cc2ccccc2[nH]1)CC1CC1c1cc(Cl)ccc1OC (stereo not given) , system D(1B) dopamine receptor (Homo sapiens, UniProt P21918): what pKi was measured?
5.37

// same read-out, input: CCCN(CCCCNC(=O)c1cc2ccccc2[nH]1)CC1CC1c1cccc(Cl)c1Cl (racemic)
5.46

CCCN(CCCCNC(=O)c1ccc2ccccc2c1)CC1CC1c1ccc(Cl)cc1 (stereo not given) ?
5.21

Then what about the compound CCN(CCCSc1nnc(-c2ccccc2)n1C)CC1CC1c1cc(F)ccc1OCCF (stereo not given) ?
5.70

====

# system: D(1B) dopamine receptor (Homo sapiens, UniProt P21918)
# test: Displacement of [3H]-SCH23390 from recombinant human D5 receptor transiently expressed in HEKT cell membranes measured after 90 mins by microbeta scintillation counting method
What pKi was measured for each of the following?
The scale used: pKi is minus the common logarithm of the concentration in molar units.

Fill in: pKi of CCCN(CCCCNC(=O)c1cc2ccccc2[nH]1)CC1CC1c1ccc(C(F)(F)F)cc1 (configuration not stated) is ___
5.09

// same read-out, input: CCCN(CCCCNC(=O)c1ccc(-c2ccccn2)cc1)CC1CC1c1ccc(Cl)cc1 (configuration not stated)
5.05

Likewise for COc1ccc(F)cc1C1CC1CN(C)CCCSc1nnc(-c2ccccc2)n1C (configuration not stated) ?
6.00

Cool, now CN(CCCSc1nnc(-c2ccccc2)n1C)CC1CC1c1cc(F)ccc1OCCF (configuration not stated)
5.67

// repeat for CCN(CCCSc1nnc(-c2ccccc2)n1C)CC1CC1c1cc(F)ccc1OC (configuration not stated) and report
5.73

Also check CCCN(CCCCNC(=O)c1cc2ccccc2[nH]1)CC1CC1c1ccc(F)cc1 (configuration not stated)
4.98

Can you handle CCCN(CCCCNC(=O)c1ccc(-c2ccccn2)cc1)CC1CC1c1cccc(Cl)c1 (configuration not stated) next?
5.25

Repeat with Cn1c(SCCCNCC2CC2c2cc(F)ccc2OCCF)nnc1-c1ccccc1 (configuration not stated)
5.97

Same read-out for COc1ccc(F)cc1C1CC1CN(CCCSc1nnc(-c2ccccc2)n1C)CC1CC1 (configuration not stated) ?
5.92

Now try CCCN(CCCCNC(=O)c1ccc2ccccc2c1)CC1CC1c1cccc(Cl)c1 (configuration not stated) .
5.06

Next entry: CCCN(CCCCNC(=O)c1ccc2ccccc2c1)CC1CC1c1cc(Cl)ccc1OC (configuration not stated)
5.96

Now the same for CCN(CCCCNC(=O)c1ccc2ccccc2c1)CC1CC1c1cc(Cl)ccc1OC (configuration not stated)
6.24

Now the same for CCCN(CCCCNC(=O)c1ccc2ccccc2c1)CC1CC1c1ccc(C(F)(F)F)cc1 (configuration not stated)
5.24

CCCN(CCCCNC(=O)c1cc2ccccc2[nH]1)CC1CC1c1cc(F)ccc1OC (configuration not stated) , same question.
6.10

Try this molecule too: CCCN(CCCCNC(=O)c1ccc(-c2ccccn2)cc1)CC1CC1c1ccc(C(F)(F)F)cc1 (configuration not stated)
5.11

Note, next up: CCOc1ccc(F)cc1C1CC1CN(CC)CCCSc1nnc(-c2ccccc2)n1C (configuration not stated)
5.80

====

# system: 5-hydroxytryptamine receptor 2C (Homo sapiens)
# test: Displacement of [3H]-Mesulergine from recombinant human 5HT2C receptor expressed in HEKT cell membranes measured after 90 mins by microbeta scintillation counting method
For each record, write down the corresponding Ki.
Field format: number, assumed nM, no unit text.

Look at this compound and give its reported Ki. CCCN(CCCCNC(=O)c1cc2ccccc2[nH]1)CC1CC1c1cccc(Cl)c1 (centres undefined)
132

Here is the next compound: CCCN(CCCCNC(=O)c1cc2ccccc2[nH]1)CC1CC1c1ccc(F)cc1 (centres undefined)
219

Further, for COc1ccc(Cl)cc1C1CC1CN(CCCSc1nnc(-c2ccccc2)n1C)CC1CC1 (centres undefined) ?
274

Let us now turn to CCCN(CCCCNC(=O)c1cc2ccccc2[nH]1)CC1CC1c1cccc(Cl)c1Cl (racemic)
105

Same thing, different compound: CCCN(CCCCNC(=O)c1ccc(-c2ccccn2)cc1)CC1CC1c1cc(Cl)ccc1OC (centres undefined)
136

And then CCCN(CCCCNC(=O)c1cc2ccccc2[nH]1)CC1CC1c1cc(Cl)ccc1OC (centres undefined) , what is it?
85.1

Queued: CCCN(CCCCNC(=O)c1ccc(-c2ccccn2)cc1)CC1CC1c1cccc(F)c1 (centres undefined)
1340

Moving on to the next compound: CCCN(CCCCNC(=O)c1ccc(-c2ccccn2)cc1)CC1CC1c1cc(F)ccc1OC (racemic)
53

Try this compound next: CCCN(CCCCNC(=O)c1ccc2ccccc2c1)CC1CC1c1ccc(F)cc1 (centres undefined)
238

====

# system: 5-hydroxytryptamine receptor 2C (Homo sapiens, UniProt P28335)
# Sequence (P28335 whole entry): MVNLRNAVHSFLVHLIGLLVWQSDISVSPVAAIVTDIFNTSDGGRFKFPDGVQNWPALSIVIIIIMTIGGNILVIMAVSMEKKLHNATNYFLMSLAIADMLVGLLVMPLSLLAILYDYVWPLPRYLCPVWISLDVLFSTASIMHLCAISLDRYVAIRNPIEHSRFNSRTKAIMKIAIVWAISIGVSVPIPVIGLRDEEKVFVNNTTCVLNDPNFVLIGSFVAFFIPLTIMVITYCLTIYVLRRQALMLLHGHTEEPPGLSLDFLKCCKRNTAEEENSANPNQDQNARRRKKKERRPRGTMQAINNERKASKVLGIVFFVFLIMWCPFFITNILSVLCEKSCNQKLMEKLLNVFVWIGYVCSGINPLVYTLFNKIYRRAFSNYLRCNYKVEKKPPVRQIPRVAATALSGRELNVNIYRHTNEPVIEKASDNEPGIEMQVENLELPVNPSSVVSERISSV
# test: Displacement of [3H]-Mesulergine from recombinant human 5HT2C receptor expressed in HEKT cell membranes measured after 90 mins by microbeta scintillation counting method
readout.label: log10 of Ki (log10 of the value in nM)
Annotation: log10 of Ki, nM basis.

Any idea what log10 of Ki came out for CCCN(CCCCNC(=O)c1cc2ccccc2[nH]1)CC1CC1c1cc(F)ccc1OC (centres undefined) on 5-hydroxytryptamine receptor 2C (Homo sapiens, UniProt P28335)?
1.83

Now consider CCN(CCCCNC(=O)c1ccc2ccccc2c1)CC1CC1c1cc(F)ccc1OC (centres undefined) and answer again.
1.76

Try CCCN(CCCCNC(=O)c1ccc2ccccc2c1)CC1CC1c1cc(F)ccc1OC (centres undefined) next.
1.80

Can you check CCN(CCCSc1nnc(-c2ccccc2)n1C)CC1CC1c1cc(Cl)ccc1OC (centres undefined) next?
2.31

Input CCCN(CCCSc1nnc(-c2ccccc2)n1C)CC1CC1c1cc(Cl)ccc1OC (centres undefined)
2.73

Same question for CCCN(CCCCNC(=O)c1ccc(-c2ccccn2)cc1)CC1CC1c1cccc(Cl)c1 (centres undefined) please.
2.95

Another: CCCN(CCCCNC(=O)c1ccc(-c2ccccn2)cc1)CC1CC1c1cccc(Cl)c1Cl (racemic)
1.99

Now consider `CCCN(CCCCNC(=O)c1ccc(-c2ccccn2)cc1)C[C@H]1C[C@@H]1c1cccc(Cl)c1Cl.Cl` .
1.65

What do we get for CCCN(CCCCNC(=O)c1cc2ccccc2[nH]1)CC1CC1c1cccc(F)c1 (centres undefined) ?
2.03

====

# system: D(2) dopamine receptor (Homo sapiens)
# Sequence (P14416 whole entry): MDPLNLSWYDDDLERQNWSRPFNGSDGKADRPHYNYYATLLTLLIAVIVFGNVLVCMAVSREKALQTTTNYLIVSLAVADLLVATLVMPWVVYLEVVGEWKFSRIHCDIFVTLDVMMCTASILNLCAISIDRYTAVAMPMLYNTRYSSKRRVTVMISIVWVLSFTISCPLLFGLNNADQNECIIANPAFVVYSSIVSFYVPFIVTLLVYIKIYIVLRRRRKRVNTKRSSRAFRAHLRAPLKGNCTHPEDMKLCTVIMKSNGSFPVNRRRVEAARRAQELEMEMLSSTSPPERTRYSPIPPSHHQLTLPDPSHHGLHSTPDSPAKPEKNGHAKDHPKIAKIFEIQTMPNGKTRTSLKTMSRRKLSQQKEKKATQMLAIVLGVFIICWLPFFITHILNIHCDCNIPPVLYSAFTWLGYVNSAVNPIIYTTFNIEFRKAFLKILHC
# test: Displacement of [3H]-N-methylspiperone from recombinant human D2 receptor stably expressed in fibroblast cell membranes measured after 90 mins by microbeta scintillation counting method
Kindly supply the reported pKi values for the records listed here.
The value called pKi is obtained by taking minus log10 of the concentration in mol/L.

What measured pKi goes with COc1ccc(Cl)cc1C1CC1CN(CCCSc1nnc(-c2ccccc2)n1C)CC1CC1 (centres undefined) ?
6.67

CCN(CCCSc1nnc(-c2ccccc2)n1C)CC1CC1c1cc(F)ccc1OC (centres undefined) ?
6.56

Queued: `CCCN(CCCCNC(=O)c1ccc(-c2ccccn2)cc1)C[C@@H]1C[C@H]1c1cc(F)ccc1OC.Cl`
5.87

Query CCCN(CCCCNC(=O)c1cc2ccccc2[nH]1)CC1CC1c1cc(Cl)ccc1OC (centres undefined) next
5.85

====

# system: UniProt P28335
# test: Antagonist activity at human 5HT2C receptor stably expressed in HEK293 cells co-expressing Gq assessed as inhibition of 5-HT-induced calcium mobilization preincubated for 15 mins followed by 5-HT addition and measured at 1 sec interval for 60 secs by Fluo-4 calcium dye based FLIPR assay
readout.label: pIC50
To interpret pIC50, take it as minus log10 of a concentration measured in moles per litre.

State the recorded pIC50 for this entry: `CCCN(CCCCNC(=O)c1ccc2ccccc2c1)C[C@@H]1C[C@H]1c1cccc(Cl)c1Cl.Cl`
4.79

Repeat with `CCCN(CCCCNC(=O)c1ccc(-c2ccccn2)cc1)C[C@@H]1C[C@H]1c1cccc(Cl)c1Cl.Cl`
5.00

Same read-out for `CCCN(CCCCNC(=O)c1ccc(-c2ccccn2)cc1)C[C@@H]1C[C@H]1c1cc(F)ccc1OC.Cl` ?
4.84

Same for `CCCN(CCCCNC(=O)c1ccc(-c2ccccn2)cc1)C[C@H]1C[C@@H]1c1cc(F)ccc1OC.Cl`
6.07
